Tested on: SEM cells
Assay Explanation: cell viability relative to DMSO control; higher = less cytotoxic
Condition Details: RPMI 5 mM glucose + 10% FBS; 48 h; 1.71 µM
Assay Readout: cell viability (%)
Express your answer in %, writing the number without its unit.

INSERT INTO assay_data (smiles_structure, tested_on, numeric_readout) VALUES
  ('Cc1ccc(/C=N/NC(=O)c2ccccc2Oc2ccccc2)o1', 'SEM cells', 104);

Lookup: Please give the measured cell viability for this compound: O=[S+]([O-])(NCCNC/C=C/c1ccc(Br)cc1)c1cccc2cnccc12
Found: 103

Lookup: Please give the measured cell viability for this compound: Cc1cccc2c1CC[C@H](CN1CCC(c3c(Cl)cccc3Cl)CC1)C[C@@H]2O
Found: 133

Lookup: Please give the measured cell viability for this compound: N#Cc1ccnc(N2C(=O)CC[C@H]2C(=O)N(c2cncc(F)c2)[C@H](C(=O)NC2CC(F)(F)C2)c2ccccc2Cl)c1
Found: 50.5

Lookup: Please give the measured cell viability for this compound: C=CC(=O)Nc1ccc2ncnc(Nc3ccc(OCc4cccc(F)c4)c(Cl)c3)c2c1
Found: 116

Lookup: Please give the measured cell viability for this compound: Oc1ccc([C@@H]2Oc3ccc(O)cc3[C@@H]3CCC[C@@H]32)cc1
Found: 103

Lookup: Please give the measured cell viability for this compound: Cc1ccc([S+](=O)([O-])Nc2cc(Cl)ccc2C(=O)Nc2nc(-c3ccccc3)cs2)cc1
Found: 124

Lookup: Please give the measured cell viability for this compound: Cc1c(C(=O)c2cccc3ccccc23)c2cccc3c2n1[C@H](CN1CCOCC1)CO3
Found: 80.4

----------
Test system: SEM cells
Assay Explanation: cell viability relative to DMSO control; higher = less cytotoxic
Condition Details: RPMI 5 mM glucose + 10% dialyzed FBS; 48 h; 0.000781 µM
Assay Readout: cell viability (%)
Express your answer in %, writing the number without its unit.

These solved cases illustrate the format of a correct answer.
INSERT INTO assay_data (compound, result_unit, numeric_readout) VALUES
  ('N#Cc1ccnc(N2C(=O)CC[C@H]2C(=O)N(c2cncc(F)c2)[C@H](C(=O)NC2CC(F)(F)C2)c2ccccc2Cl)c1', '%', 104),
  ('Cc1ccc(-c2cc(C(F)(F)F)nn2-c2ccc([S+](N)(=O)[O-])cc2)cc1', '%', 120),
  ('NC\1=N\C(=O)N(\C=C1F)[C@H]2C[C@H](O)[C@@H](CO)O2', '%', 125);

Lookup: Please give the measured cell viability for this compound: COc1cc2ncn(-c3cc(OCc4ccccc4C(F)(F)F)c(C(N)=O)s3)c2cc1OC
Found: 108

----------
This section presents molecules with their documented cell viability values.
Tested on: P12-Ichikawa
Assay Explanation: cell viability relative to DMSO control; higher = less cytotoxic
Condition Details: RPMI 5 mM glucose + 10% FBS; 48 h; 1.71 µM
Express your answer in %, writing the number without its unit.

These solved cases illustrate the format of a correct answer.
INSERT INTO measurements (molecule, result_unit, numeric_readout) VALUES
  ('CC(C)Cn1cnc2c(N)nc3ccccc3c21', '%', 107),
  ('C[N+]1(C)[C@@H]2CC(OC(=O)C(O)(c3cccs3)c3cccs3)C[C@H]1[C@@H]1O[C@@H]12 (some centres not stated)', '%', 116),
  ('CO[C@@H]1[C@@H](O)[C@H](O)[C@@H](n2c3c(Cl)cccc3c3c4c(c5c6cccc(Cl)c6[nH]c5c32)C(=O)NC4=O)O[C@H]1CO', '%', 6.11),
  ('CC(S)C(=O)NCC(=O)O (configuration not stated)', '%', 126),
  ('CCOCC(O)COc1ccc(NC(=O)CC[S+](C)C)cc1 (configuration not stated)', '%', 97.3);

Lookup: Provide the documented cell viability with P12-Ichikawa as the system for CCCCc1nc2cc(/C=C/C(=O)NO)ccc2n1CCN(CC)CC
Found: 85.7

Lookup: Provide the documented cell viability with P12-Ichikawa as the system for Oc1ccc(-c2ccc(-c3cc(Nc4cccc(CNC5CC5)c4)[nH]n3)cc2)c(O)c1
Found: 89
